Cited source for all entries: ChEMBL document CHEMBL3792296

Test system: HeLa
Assay: Antiproliferative activity against human HeLa cells after 48 hrs by MTT assay
Format: functional, cell-based
OBSERVATION_TYPE: IC50 (µM)
Write the number in µM without appending the unit.

The following molecules have reported results that may help.
For HeLa, provide IC50 of COc1ccc(CNc2c3ccc(Cl)cc3nc3ccc(OC)cc23)cc1 please. 1.7

For HeLa, provide IC50 of COc1ccc2nc3cc(Cl)ccc3c(NCc3ccc(OC)c(F)c3)c2c1 please. 4.08

For HeLa, provide IC50 of COc1ccc2nc3cc(Cl)ccc3c(NCc3ccc4c(c3)OCO4)c2c1 please. 7

For HeLa, provide IC50 of COc1cc([C@@H]2c3cc4c(cc3[C@@H](O[C@@H]3O[C@@H]5CO[C@@H](C)O[C@H]5[C@H](O)[C@H]3O)[C@H]3COC(=O)[C@H]23)OCO4)cc(OC)c1O [ETOPOSIDE] please. 41.2

For HeLa, provide IC50 of COc1cccc2c1C(=O)c1c(O)c3c(c(O)c1C2=O)C[C@@](O)(C(=O)CO)C[C@@H]3O[C@H]1C[C@H](N)[C@H](O)[C@H](C)O1 [DOXORUBICIN] please. 0.78

For HeLa, provide IC50 of COc1ccc2nc3cc(Cl)ccc3c(NCc3cccc(C(F)(F)F)c3)c2c1 please. 10.1

Further cases:
For HeLa, provide IC50 of COc1cc(NS(C)(=O)=O)ccc1Nc1c2ccccc2nc2ccccc12 [AMSACRINE] please. 0.34

For HeLa, provide IC50 of COc1ccc2nc3cc(Cl)ccc3c(NCc3ccc(OC(F)F)cc3)c2c1 please. 4.41

----------
Tested on: MCF7
Assay: Antiproliferative activity against human MCF7 cells after 48 hrs by MTT assay
Format: functional, cell-based
Conditions: MCF7, 48 h
Reported log10 of IC50 values are given for each entry in this list.
Field: value | Transform: log10 | Quantity: IC50 | Unit: µM

The following compounds have reported results that may help.
# lookup: log10 of IC50 of COc1ccc2nc3cc(Cl)ccc3c(NCc3ccc4c(c3)OCO4)c2c1 1.01

# lookup: log10 of IC50 of COc1ccc2nc3cc(Cl)ccc3c(NCc3ccc(OC(F)F)cc3)c2c1 1.00

# lookup: log10 of IC50 of COc1ccc2nc3cc(Cl)ccc3c(NCc3cccc(C(F)(F)F)c3)c2c1 1.02

# lookup: log10 of IC50 of COc1cc(NS(C)(=O)=O)ccc1Nc1c2ccccc2nc2ccccc12 1.43

Further cases:
# lookup: log10 of IC50 of COc1ccc2nc3cc(Cl)ccc3c(NCc3ccc(OC)c(F)c3)c2c1 0.88

# lookup: log10 of IC50 of COc1ccc(CNc2c3ccc(Cl)cc3nc3ccc(OC)cc23)cc1 0.84

# lookup: log10 of IC50 of COc1cccc2c1C(=O)c1c(O)c3c(c(O)c1C2=O)C[C@@](O)(C(=O)CO)C[C@@H]3O[C@H]1C[C@H](N)[C@H](O)[C@H](C)O1 -0.09

----------
Biological target: DNA topoisomerase 1 (Homo sapiens)
Assay: Inhibition of human topoisomerase 1 assessed as reduction in enzyme-mediated relaxation of supercoiled pBR322 DNA at 50 to 100 uM after 10 to 15 mins by agarose gel electrophoresis
Activity calls are given as the source filed them. The calls are words filed in the database; no cut-off is given here.
OBSERVATION_TYPE: inhibition

# lookup: inhibition of COc1ccc2nc3cc(Cl)ccc3c(NCc3ccc(F)cc3)c2c1 Active

# lookup: inhibition of CCc1ccc(CNc2c3ccc(Cl)cc3nc3ccc(OC)cc23)cc1 Active

# lookup: inhibition of COc1ccc2nc3cc(Cl)ccc3c(NCc3ccc(OC)c(OC)c3)c2c1 Active

# lookup: inhibition of COc1ccc(CNc2c3ccc(Cl)cc3nc3ccc(OC)cc23)cc1 Active
